The compounds listed here are annotated with their CC50 at 6 days.
test-protocol: Cell viability assay (AlamarBlue) in HepAD38 cells
conditions: human

Example cases with answers are listed next.
# compound, CC50 at 6 days
measured = [
    ("O=C(c1cc2ccccc2[nH]1)N1CCc2n[nH]c(C(=O)N3CCN(Cc4ccccc4)C4(CC4)C3)c2C1 [Example 257]", "> 10 µM"),
    ("CO/N=C(\\c1n[nH]c2c1CN(C(=O)c1cc3ccccc3[nH]1)CC2)C1CC1 [Example 289]", "> 10 µM"),
    ("CN(CCS(C)(=O)=O)C(=O)c1n[nH]c2c1CN(C(=O)c1cc3ccccc3[nH]1)CC2 [Example 150]", "> 10 µM"),
    ("O=C(c1cc2ccccc2[nH]1)N1CCc2[nH]nc(C(=O)N3CCC[C@H](O)C3)c2C1 [Example 162]", "> 10 µM"),
    ("Nc1n[nH]c2c1CN(C(=O)c1cc3ccccc3[nH]1)CC2 [Example 115]", "> 100 µM"),
]

Task: Look up CC50 at 6 days for this compound: CC(C)(O)C1CN(C(=O)c2n[nH]c3c2CN(C(=O)c2cc4ccccc4[nH]2)CC3)C1 [Example 39]
Result: > 32 µM

Task: CC50 at 6 days for COCC1(N(CC(F)F)C(=O)c2n[nH]c3c2CN(C(=O)c2cc4ccccc4[nH]2)CC3)CC1 [Example 303] ?
Result: > 10 µM

Task: Any idea what CC50 at 6 days was measured for O=C(c1cc2ccccc2[nH]1)N1CCc2[nH]nc(NCc3ccccc3)c2C1 [Example 91] ?
Result: > 100 µM

* * *

measured-target: HBV core protein (UniProt P03146)
Construct: fused on or other part: BODIPY-FL maleimide label on the C-terminal Cys150
Sequence (P03146 whole entry, looked up, the tested form may be a part): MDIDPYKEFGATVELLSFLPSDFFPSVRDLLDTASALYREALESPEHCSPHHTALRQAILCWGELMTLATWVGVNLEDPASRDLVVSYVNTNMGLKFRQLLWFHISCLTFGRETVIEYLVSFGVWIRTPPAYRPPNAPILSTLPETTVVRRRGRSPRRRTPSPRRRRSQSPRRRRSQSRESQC
test-protocol: Biochemical capsid assembly assay (fluorescence quenching)
Design: species or system hepatitis B virus
conditions: read-out: Assembly Activity (IC50); BODIPY-FL labelled core protein, 300 μM NaCl, read 6 min after start
# maps each entry to its IC50

# compound, measured-target, IC50
data = [
    ("O=C(c1cc2ccccc2[nH]1)N1CCc2[nH]nc(C(=O)N3CC(CO)C3)c2C1", "HBV core protein (UniProt P03146)", "< 100 µM"),
    ("CCc1cccc2[nH]c(C(=O)N3CCc4[nH]nc(C56CC(C5)C6)c4C3)cc12", "HBV core protein (UniProt P03146)", "< 5 µM"),
    ("CN(C(=O)c1n[nH]c2c1CN(C(=O)c1cc3ccccc3[nH]1)CC2)C1(c2ccccn2)CC1", "HBV core protein (UniProt P03146)", "< 5 µM"),
]

Task: // query IC50 value for entry "CON(C)C(=O)c1n[nH]c2c1CN(C(=O)c1cc3c(F)ccc(F)c3[nH]1)CC2"
Result: < 5 µM

Task: Tell me the measured IC50 of "Cc1cc(F)cc2[nH]c(C(=O)N3CCc4[nH]nc(C(=O)N(C)CCO)c4C3)cc12" , please.
Result: < 5 µM

Task: Quick one: IC50 for "CN(C(=O)c1[nH]nc2c1CN(C(=O)c1cc3c(F)cccc3[nH]1)CC2)C1CC1" ?
Result: < 5 µM

Task: For the compound shown here, O=C(c1cc2c(F)cc(F)cc2[nH]1)N1C2CCC1c1cn[nH]c1C2 (centres unmarked) , give the reported IC50.
Result: < 100 µM

Task: Look up IC50: "Cc1cc(F)cc2[nH]c(C(=O)N3CCc4n[nH]c(-c5cscn5)c4C3)cc12"
Result: < 5 µM

* * *

measured-target: HBV core protein (UniProt P03146)
Construct: fused on or other part: BODIPY-FL maleimide label on the C-terminal Cys150
test-protocol: Biochemical capsid assembly assay (fluorescence quenching)
Design: species or system hepatitis B virus
conditions: read-out: Assembly Activity (IC50); BODIPY-FL labelled core protein, 300 μM NaCl, read 6 min after start
pIC50: −log10 of the molar value.
pIC50 values by entry

Check out these entries, answers already filled in.
# compound, pIC50
records = [
    ("CN(C(=O)c1n[nH]c2c1CN(C(=O)c1cc3ccccc3[nH]1)CC2)C1CCOC1 (stereo not shown)", "> 4.00"),
    ("CC(C)(O)C1CN(C(=O)c2n[nH]c3c2CN(C(=O)c2cc4ccccc4[nH]2)CC3)C1", "> 4.00"),
    ("COC1CCN(C(=O)c2n[nH]c3c2CN(C(=O)c2cc4ccccc4[nH]2)CC3)CC1", "> 4.00"),
    ("CCc1cccc2[nH]c(C(=O)N3CCc4[nH]nc(C5CCCO5)c4C3)cc12 (stereo not shown)", "> 5.30"),
    ("CC(C)OCC1(N(C)C(=O)c2n[nH]c3c2CN(C(=O)c2cc4ccccc4[nH]2)CC3)CC1", "> 5.30"),
    ("CCc1cc(F)cc2[nH]c(C(=O)N3CCc4[nH]nc(C5CCCO5)c4C3)cc12 (stereo not shown)", "> 5.30"),
    ("CN(CCO)C(=O)c1n[nH]c2c1CN(C(=O)c1cc3c(C(F)(F)F)cccc3[nH]1)CC2", "> 5.30"),
    ("CCc1cc(F)cc2[nH]c(C(=O)N3CCc4n[nH]c(-c5cscn5)c4C3)cc12", "> 5.30"),
    ("CN(Cc1ccccc1)C(=O)c1n[nH]c2c1CN(C(=O)c1cc3ccccc3[nH]1)CC2", "> 5.30"),
    ("COCC1(N(C)C(=O)c2n[nH]c3c2CN(C(=O)c2cc4cc(F)cc(F)c4[nH]2)CC3)CC1", "> 5.30"),
]

Then there is this compound:
Task: Name the reported pIC50 value associated with the compound "O=C(c1cc2ccccc2[nH]1)N1CCc2[nH]nc(C(=O)N3C[C@H]4CCO[C@H]4C3)c2C1"
Result: > 4.00

* * *

measured-target: HBV core protein (UniProt P03146)
Construct: fused on or other part: BODIPY-FL maleimide label on the C-terminal Cys150
test-protocol: Biochemical capsid assembly assay (fluorescence quenching)
Parameters: species or system hepatitis B virus
conditions: read-out: Assembly Activity (IC50); BODIPY-FL labelled core protein, 300 μM NaCl, read 6 min after start
pIC50: −log10 of the molar value.
endpoint-name: pIC50

Sample records with pIC50:
# smiles-repr, pIC50
rows = [
    ("CN(CCO)C(=O)c1n[nH]c2c1CN(C(=O)c1cc3ccc(Cl)cc3[nH]1)CC2", "> 5.30"),
    ("O=C(c1cc2c(F)ccc(F)c2[nH]1)N1CCc2n[nH]c(-c3cscn3)c2C1", "> 5.30"),
]

Task: Which pIC50 is reported for this molecule? "O=C(NCCCO)c1n[nH]c2c1CN(C(=O)c1cc3ccccc3[nH]1)CC2"
Result: > 4.00

Task: GET /values?readout=pIC50&item= "CNC(=O)c1n[nH]c2c1CN(C(=O)c1cc3ccccc3[nH]1)CC2"
Result: > 4.00

Task: Suppose we examine the molecule "C[C@@H]1CCCCN1C(=O)c1n[nH]c2c1CN(C(=O)c1cc3ccccc3[nH]1)CC2" ; what pIC50 value has been reported?
Result: 5.00 to 5.30

Task: Item under review: "CN(CC(C)(C)O)C(=O)c1n[nH]c2c1CN(C(=O)c1cc3ccccc3[nH]1)CC2" . Reported pIC50?
Result: 5.00 to 5.30

Task: Consider the molecule "CN(CCO)C(=O)c1n[nH]c2c1CN(C(=O)c1cc3c(C(C)(F)F)cc(F)cc3[nH]1)CC2" and give its measured pIC50.
Result: > 5.30

Task: For "O=C(c1cc2c(F)cccc2[nH]1)N1CCc2[nH]ncc2C1" , what is its reported pIC50?
Result: > 5.30

* * *

Reported IC50 is given for each of the following molecules.
measured-target: HBV core protein (UniProt P03146)
Construct: fused on or other part: BODIPY-FL maleimide label on the C-terminal Cys150
test-protocol: Biochemical capsid assembly assay (fluorescence quenching)
Parameters: species or system hepatitis B virus
conditions: read-out: Assembly Activity (IC50); BODIPY-FL labelled core protein, 300 μM NaCl, read 6 min after start

# molecule, IC50
records = [
    ("CC(C)OC(=O)[C@H](C)NP(=O)(OCCON(C)C(=O)c1n[nH]c2c1CN(C(=O)c1cc3ccccc3[nH]1)CC2)Oc1ccccc1 (stereo partly shown)", "< 5 µM"),
    ("COCC1(N(C)C(=O)c2n[nH]c3c2CN(C(=O)c2cc4ccccc4[nH]2)CC3)CCC1", "5 to 10 µM"),
    ("O=C(c1cc2c(Cl)cc(F)cc2[nH]1)N1CCc2[nH]ncc2C1", "< 5 µM"),
    ("C#CCN(C)C(=O)c1n[nH]c2c1CN(C(=O)c1cc3ccccc3[nH]1)CC2", "< 5 µM"),
    ("O=C(c1cc2ccccc2[nH]1)N1CCc2[nH]nc(C(=O)N3CCC[C@@H](O)C3)c2C1", "5 to 10 µM"),
    ("Cc1cc(F)cc2[nH]c(C(=O)N3CCc4n[nH]c(C(=O)N(C)C5CC5)c4C3)cc12", "< 5 µM"),
]

Next molecule, IC50 to be filled in.
Task: What IC50 value was documented for this molecule, "CCN(C(=O)c1n[nH]c2c1CN(C(=O)c1cc3ccccc3[nH]1)CC2)C1(COC)CC1" ?
Result: < 5 µM
